src = the supplement of paper PMC3334620

Each entry below carries its recorded PBM E-score.
# tested-system: Cad1 (UniProt P24813)
# Sequence: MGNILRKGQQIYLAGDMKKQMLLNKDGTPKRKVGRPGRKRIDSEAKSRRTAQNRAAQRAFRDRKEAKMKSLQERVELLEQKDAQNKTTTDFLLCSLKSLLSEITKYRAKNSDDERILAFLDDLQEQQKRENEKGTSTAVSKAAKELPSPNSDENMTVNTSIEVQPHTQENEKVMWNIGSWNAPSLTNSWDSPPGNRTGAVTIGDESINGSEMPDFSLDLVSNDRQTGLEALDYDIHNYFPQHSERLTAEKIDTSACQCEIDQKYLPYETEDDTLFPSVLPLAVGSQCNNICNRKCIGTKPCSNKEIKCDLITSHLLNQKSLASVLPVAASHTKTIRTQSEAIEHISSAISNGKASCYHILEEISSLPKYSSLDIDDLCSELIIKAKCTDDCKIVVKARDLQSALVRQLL
# method-notes: PBM E-score (8-mer binding enrichment) (E-score (-0.5 to 0.5)); higher = stronger / more preferred TF binding
# experimental-context: protein concentration: 100 nM; construct: GST-full length
In all, about 33,000 sequences were measured (“E-score (-0.5 to 0.5)”: median about -0.0014, highest 2% from about 0.25 on). The sample as a whole holds a higher share of the highest values than the screen did.
Form rule: numeric answer, no unit written next to it.

ACTAATAC
0.301
AAGAATTC
0.0649
GGGTCCGA
-0.21
AAACATAT
0.25
TCCTCAAA
-0.166

For `GTCGAAGA` the sequence record lists PBM E-score as -0.0249

Documented PBM E-score of `AAACAATA` : 0.251

Note to self: PBM E-score recorded for `TAACAATA` was 0.165

# sequence `CCTAATAC` ; its PBM E-score = 0.013
